Target: human FXR (Homo sapiens, UniProt Q96RI1)
Sequence (Q96RI1 with tags, fused parts or gaps limits assumed): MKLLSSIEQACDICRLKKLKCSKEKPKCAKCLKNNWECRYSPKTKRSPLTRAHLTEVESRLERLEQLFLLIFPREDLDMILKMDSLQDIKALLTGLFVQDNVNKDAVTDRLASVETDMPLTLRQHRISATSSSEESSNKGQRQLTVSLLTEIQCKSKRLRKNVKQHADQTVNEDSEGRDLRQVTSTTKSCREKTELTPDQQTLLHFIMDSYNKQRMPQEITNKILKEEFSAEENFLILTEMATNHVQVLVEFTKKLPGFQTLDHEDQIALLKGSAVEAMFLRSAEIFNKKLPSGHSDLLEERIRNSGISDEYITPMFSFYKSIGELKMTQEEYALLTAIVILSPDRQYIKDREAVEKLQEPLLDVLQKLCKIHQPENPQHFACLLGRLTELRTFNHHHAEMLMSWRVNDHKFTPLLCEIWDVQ
Experiment: FXR-bla reporter gene assay, antagonist mode (CDCA-induced transactivation)
Conditions: FXR-bla assay, CDCA-induced
measuredAttribute: FXR antagonist activity

COC(=O)C1=C(C)NC(C)=C(C(=O)OC)C1c1ccccc1[N+](=O)[O-] [Nifedipine]	antagonists
COC(=O)C1=C(C)NC(C)=C(C(=O)OCC(C)C)C1c1ccccc1[N+](=O)[O-] (centres unmarked) [Nisoldipine]	antagonists

###

Target: human FXR (Homo sapiens, UniProt Q96RI1)
Test: FXR-bla reporter gene assay, agonist mode (qHTS)
Settings: read-out: FXR agonist mode EC50; Table S1, primary screening
measuredAttribute: pEC50
Value format note: pEC50 is -log10 of concentration (mol/L); just state the number.

O=C(Nc1ccccc1)c1ccccc1SSc1ccccc1C(=O)Nc1ccccc1 [DTBBA, 2,2-Dithiobisbenzanilide]	4.61

Here's the next entry for you.
Suppose we examine the molecule CC1(C)CCC(C)(C)c2cc(NC(=O)c3ccc(C(=O)O)cc3)ccc21 [AM80] ; what pEC50 value has been reported?
4.41

###

Target: human FXR (Homo sapiens, UniProt Q96RI1)
Test: FXR-bla reporter gene assay, antagonist mode (CDCA-induced transactivation)
measuredAttribute: FXR antagonist mode Efficacy
Reply briefly: the number, and no unit.

CC(C)[C@H](Nc1ccc(C(F)(F)F)cc1Cl)C(=O)OC(C#N)c1cccc(Oc2ccccc2)c1 (stereo partly drawn) [Fluvalinate]	53

Suppose we examine the compound Cc1c(COC(=O)[C@@H]2[C@H](/C=C(\Cl)C(F)(F)F)C2(C)C)cccc1-c1ccccc1 (racemic) [Bifenthrin] ; what FXR antagonist mode Efficacy value has been reported?
50

###

Test: Cell viability assay (CellTiter Glo) in the same well as FXR-bla
Conditions: human, FXR-UAS-bla HEK293T cells
# EC50 at 16 h values compiled below
The figure you give is taken to be in µM; do not add the unit.

COC(=O)C1=C(C)NC(C)=C(C(=O)OCCN(C)Cc2ccccc2)C1c1cccc([N+](=O)[O-])c1 (centres unmarked)	31.9

Here's the next entry for you.
Suppose we examine the molecule CCc1c(C(=O)NN2CCCCC2)nn(-c2ccc(Cl)cc2Cl)c1-c1ccc(Br)cc1 ; what EC50 at 16 h value has been reported?
34.1

###

Target: androgen receptor (AR) (Homo sapiens)
Sequence (P10275 with tags, fused parts or gaps limits assumed): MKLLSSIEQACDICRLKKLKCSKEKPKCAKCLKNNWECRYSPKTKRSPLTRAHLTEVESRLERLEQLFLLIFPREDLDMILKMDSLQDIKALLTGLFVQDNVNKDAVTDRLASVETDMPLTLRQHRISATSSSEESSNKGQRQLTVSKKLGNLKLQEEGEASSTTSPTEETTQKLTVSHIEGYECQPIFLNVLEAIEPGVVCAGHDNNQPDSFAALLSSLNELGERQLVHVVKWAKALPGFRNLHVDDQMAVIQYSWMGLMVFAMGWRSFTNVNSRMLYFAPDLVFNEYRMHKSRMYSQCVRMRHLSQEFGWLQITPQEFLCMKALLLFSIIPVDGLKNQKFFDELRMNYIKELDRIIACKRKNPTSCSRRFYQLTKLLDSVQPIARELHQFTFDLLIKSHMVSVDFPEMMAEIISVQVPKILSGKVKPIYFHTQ
Test: AR-bla reporter gene assay (agonist and antagonist modes)
measuredAttribute: AR activity

COC(=O)C1=C(C)NC(COC(N)=O)=C(C(=O)OC(C)C)C1c1cccc(Cl)c1Cl (centres unmarked)	activated
CCOC(=O)C1=C(C)NC(C)=C(C(=O)OCC)C1c1ccccc1/C=C/C(=O)OC(C)(C)C	activated

###

Biological target: human FXR (Homo sapiens, UniProt Q96RI1)
Experiment: FXR-bla reporter gene assay, antagonist mode (CDCA-induced transactivation)
Details: Table 1; inhibition as percent of positive control (guggulsterone); 50 μM CDCA
Assign t whenever FXR-bla, antagonist Efficacy does not fall below 80%; assign f whenever it does.

See these solved cases before continuing.
COC(=O)Nc1nc2ccc(C(=O)c3ccccc3)cc2[nH]1 [Mebendazole]	f
Cn1cc(C2=C(c3cn(C4CCN(Cc5ccccn5)CC4)c4ccccc34)C(=O)NC2=O)c2ccccc21 [Enzastaurin]	t
CC[C@]1(O)C[C@@H]2CN(CCc3c([nH]c4ccccc34)[C@@](C(=O)OC)(c3cc4c(cc3OC)N(C)[C@H]3[C@@](O)(C(=O)OC)[C@H](OC(C)=O)[C@]5(CC)C=CCN6CC[C@]43[C@@H]65)C2)C1 [Vinblastine]	f
CCc1c(C(=O)NN2CCCCC2)nn(-c2ccc(Cl)cc2Cl)c1-c1ccc(Br)cc1 [Surinabant]	t

Now examine the next entry.
Item CC(=O)[C@]1(O)Cc2c(O)c3c(c(O)c2[C@@H](O[C@H]2C[C@H](N)[C@H](O)[C@H](C)O2)C1)C(=O)c1ccccc1C3=O [Idarubicin] with FXR-bla, antagonist Efficacy of 80% or above?
t

###

Biological target: human FXR (Homo sapiens)
Experiment: FXR-bla reporter gene assay, antagonist mode (CDCA-induced transactivation)
Conditions: IC50, FXR-bla antagonist mode, primary screening; CDCA-induced
measuredAttribute: IC50 (µM)
The figure you give is taken to be in µM; do not add the unit.

The following compounds have reported results that may help.
COC(=O)C1=C(C)NC(C)=C(C(=O)OC2CCCN(Cc3ccccc3)C2)C1c1cccc([N+](=O)[O-])c1 (stereo not shown)	24.8
COC(=O)C1=C(C)NC(C)=C(C(=O)OC)C1c1ccccc1[N+](=O)[O-]	34
CCCCNC(=O)n1c(NC(=O)OC)nc2ccccc21	18.3

Here's the next entry for you.
Suppose we examine the compound COC(=O)Nc1nc2ccc(C(=O)c3cccs3)cc2[nH]1 ; what IC50 value has been reported?
0.32

###

# IC50 values compiled below
Biological target: human FXR (Homo sapiens, UniProt Q96RI1)
Assay: FXR-bla reporter gene assay, antagonist mode (CDCA-induced transactivation)
The figure you give is taken to be in µM; do not add the unit.

Suppose we examine the compound CC(=O)O[C@@]12CO[C@@H]1C[C@H](O)[C@@]1(C)C(=O)[C@H](O)C3=C(C)[C@@H](OC(=O)[C@H](O)[C@@H](NC(=O)OC(C)(C)C)c4ccccc4)C[C@@](O)([C@@H](OC(=O)c4ccccc4)[C@H]21)C3(C)C [Docetaxel] ; what IC50 value has been reported?
0.008

Suppose we examine the compound COC(=O)C1=C(C)NC(C)=C(C(=O)OC(C)(C)CN(C)CCC(c2ccccc2)c2ccccc2)C1c1cccc([N+](=O)[O-])c1 (stereo not drawn) [Lercanidipine] ; what IC50 value has been reported?
15.5

Suppose we examine the compound Cn1cc(C2=C(c3cn(C4CCN(Cc5ccccn5)CC4)c4ccccc34)C(=O)NC2=O)c2ccccc21 [Enzastaurin] ; what IC50 value has been reported?
10.2

###

Target: UniProtKB Q96RI1
Test: FXR-bla reporter gene assay, antagonist mode (CDCA-induced transactivation)
Assign satisfied whenever FXR antagonist Efficacy does not fall below 60%; assign not satisfied whenever it does.

See these solved cases before continuing.
CC[C@]1(O)CC[C@H]2[C@@H]3CCC4=CCCC[C@@H]4[C@H]3CC[C@@]21C [Ethylestrenol]	satisfied
COc1cc2c(c(OC)c1OC)-c1ccc(OC)c(=O)cc1[C@@H](NC(C)=O)CC2 [Colchicine]	not satisfied
COC(=O)Nc1nc2ccc(C(=O)c3cccs3)cc2[nH]1 [Nocodazole]	not satisfied

Item CO[C@H]1C[C@H](O[C@H]2[C@H](C)O[C@@H](O[C@@H]3/C(C)=C/C[C@@H]4C[C@@H](C[C@]5(C=C[C@H](C)[C@@H](C6CCCCC6)O5)O4)OC(=O)[C@@H]4C=C(C)[C@@H](O)[C@H]5OC/C(=C\C=C\[C@@H]3C)[C@]54O)C[C@@H]2OC)O[C@@H](C)[C@@H]1O [Doramectin] with FXR antagonist Efficacy of 60% or above?
satisfied

Item CO[C@H]1C[C@H](O[C@@H]2/C(C)=C/C[C@@H]3C[C@@H](C[C@]4(CC[C@H](C)[C@@H](C5CCCCC5)O4)O3)OC(=O)[C@@H]3C=C(C)/C(=N/O)[C@H]4OC/C(=C\C=C\[C@@H]2C)[C@]43O)O[C@@H](C)[C@@H]1O [Selamectin] with FXR antagonist Efficacy of 60% or above?
not satisfied

###

# EC50 values compiled below
Biological target: human FXR (Homo sapiens, UniProt Q96RI1)
Test: FXR-bla reporter gene assay, agonist mode (qHTS)
The figure you give is taken to be in µM; do not add the unit.

COC(=O)C1=C(C)NC(C)=C(C(=O)OCCN(C)Cc2ccccc2)C1c1cccc([N+](=O)[O-])c1 (stereo not drawn)	3.64
COCCOC(=O)C1=C(C)NC(C)=C(C(=O)OC/C=C/c2ccccc2)C1c1cccc([N+](=O)[O-])c1 (stereo not drawn)	8.08

Here's the next entry for you.
Suppose we examine the compound CC(=O)[C@]1(O)Cc2c(O)c3c(c(O)c2[C@@H](O[C@H]2C[C@H](N)[C@H](O)[C@H](C)O2)C1)C(=O)c1ccccc1C3=O ; what EC50 value has been reported?
1.37

###

System: FXR-UAS-bla HEK293T cells
Assay: Cell viability assay (CellTiter Glo) in the same well as FXR-bla
Conditions: Table S1, primary screening
measuredAttribute: Cytotoxicity Efficacy (%)
The figure you give is taken to be in %; do not add the unit.

CC[C@H](C)[C@H]1O[C@]2(CC[C@@H]1C)C[C@@H]1C[C@@H](C/C=C(\C)[C@@H](O[C@H]3C[C@H](OC)[C@@H](O[C@H]4C[C@H](OC)[C@@H](O)[C@H](C)O4)[C@H](C)O3)[C@@H](C)/C=C/C=C3\CO[C@@H]4[C@H](O)C(C)=C[C@@H](C(=O)O1)[C@]34O)O2 [Ivermectin B1a]	124

Here's the next entry for you.
Suppose we examine the molecule COC(=O)C1=C(C)NC(C)=C(C(=O)OCCN2CCN(C(c3ccccc3)c3ccccc3)CC2)C1c1cccc([N+](=O)[O-])c1 (centres unmarked) [Manidipine] ; what Cytotoxicity Efficacy value has been reported?
49
